Data origin: patent US10208011B2

- EXPERIMENTAL TARGET: human estrogen receptor (ERα) (Homo sapiens (Human))
- METHOD SUMMARY: Human ERα Reporter Assay (Indigo Biosciences)
- CONDITION LABEL: antagonist mode, 17β-estradiol 8E-10 M, 24 hours
- Experimental: All reagents used in this assay was supplied in the Human ERα Reporter Assay by Indigo Biosciences # IB00401. In an effort to screen selective estrogen receptor degraders (SERDs), the Human ERα Reporter Assay, supplied by Indigo Biosciences, was utilized to quantify antagonist functional activity against the human estrogen receptor. Reporter cells were thawed at 37° C. and added to pre-warmed to 37° C. cell recovery medium (CRM). […] Luminescence was measured in a Synergy HTX luminescence plate reader. […]
pIC50: −log10 of the molar value.
Please respond with reported pIC50 for every item in the list.

Form: molecule = Cc1cc(F)cc(C)c1C(=O)c1sc2cc(O)ccc2c1Oc1ccc(CCN)cc1 ; pIC50 = > 6.00

So, Cc1cc(F)cc(C)c1C(=O)c1sc2cc(O)ccc2c1Oc1ccc(CCN2CC(CF)C2)cc1 ? Its pIC50 was > 6.00

The recorded pIC50 for entry Cc1cc(F)cc(C)c1C(=O)c1sc2cc(O)ccc2c1-c1ccc(OCCN2CCC(CF)C2)cc1 (centres unmarked) equals > 4.30

// field: pIC50; key: CCC(CC)NCCc1ccc(Oc2c(C(=O)c3c(C)cc(F)cc3C)sc3cc(O)ccc23)cc1 ; value = > 6.00

Recorded pIC50 (molecule CCC(C)NCCc1ccc(Oc2c(C(=O)c3c(C)cc(F)cc3C)sc3cc(O)ccc23)cc1 (centres unmarked) ): > 6.00

The reported pIC50 of the molecule Cc1cc(F)cc(C)c1C(=O)c1sc2cc(O)ccc2c1Oc1ccc(N2CCCCC2)cc1 was > 6.00

Notebook: Cc1cc(F)cc(C)c1C(=O)c1sc2cc(O)ccc2c1-c1ccc(OCCN2CCC(CF)CC2)cc1 , pIC50 read as > 4.30

# pIC50 (molecule: Cc1cc(F)cc(C)c1C(=O)c1sc2cc(O)ccc2c1Oc1ccc(CN)cc1 ) is > 6.00

---

- EXPERIMENTAL TARGET: human estrogen receptor (ERα) (Homo sapiens (Human), UniProt P03372)
- Sequence (P03372 whole entry): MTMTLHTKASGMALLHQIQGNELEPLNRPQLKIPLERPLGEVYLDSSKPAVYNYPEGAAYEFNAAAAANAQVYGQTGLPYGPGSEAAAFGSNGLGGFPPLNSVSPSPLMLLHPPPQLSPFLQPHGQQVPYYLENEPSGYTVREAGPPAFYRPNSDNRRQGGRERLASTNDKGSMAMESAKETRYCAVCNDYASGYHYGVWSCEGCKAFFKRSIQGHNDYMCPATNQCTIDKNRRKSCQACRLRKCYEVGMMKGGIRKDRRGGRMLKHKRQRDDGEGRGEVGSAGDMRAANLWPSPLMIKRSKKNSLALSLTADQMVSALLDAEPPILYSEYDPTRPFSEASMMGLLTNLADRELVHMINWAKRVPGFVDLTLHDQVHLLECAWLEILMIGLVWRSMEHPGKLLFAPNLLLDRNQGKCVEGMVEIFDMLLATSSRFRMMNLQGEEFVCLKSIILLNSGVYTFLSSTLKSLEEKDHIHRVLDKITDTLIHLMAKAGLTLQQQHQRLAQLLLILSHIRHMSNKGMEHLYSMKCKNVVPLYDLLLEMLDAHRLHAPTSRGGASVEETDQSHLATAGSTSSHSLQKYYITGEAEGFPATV
- METHOD SUMMARY: Human ERα Reporter Assay (Indigo Biosciences)
- CONDITION LABEL: antagonist mode, 17β-estradiol 8E-10 M, 24 hours
pIC50: −log10 of the molar value.
ASSAY ENDPOINT: pIC50

Briefly, pIC50 measured for Cc1cc(F)cc(C)c1C(=O)c1sc2cc(O)ccc2c1Oc1ccc(C2CCCNC2)cc1 (centres unmarked) [Compound 103] : > 6.00

Lab book: pIC50 of Cc1cc(F)cc(C)c1C(=O)c1sc2cc(O)ccc2c1Oc1ccc(N2CCCCCC2)cc1 [Compound 102] noted as > 6.00

The recorded pIC50 for Cc1cc(F)cc(C)c1C(=O)c1sc2cc(O)ccc2c1Oc1ccc(CCNC(C)C)cc1 [Compound 105] is > 6.00

The reported value for CNCCCc1ccc(Oc2c(C(=O)c3c(C)cc(F)cc3C)sc3cc(O)ccc23)cc1 [Compound 116] in terms of pIC50 is > 6.00

// sample Cc1cc(F)cc(C)c1C(=O)c1sc2cc(O)ccc2c1-c1ccc(OCCN2CC(CF)C2)cc1 [Compound 120] , its pIC50 was > 4.30

# pIC50 of Cc1cc(F)cc(C)c1C(=O)c1sc2cc(O)ccc2c1Oc1ccc(CCNC2CCCCC2)cc1 [Compound 110] = > 6.00

pIC50 in this record for Cc1cc(F)cc(C)c1C(=O)c1sc2cc(O)ccc2c1Oc1ccc(CN(C)C)cc1 [Compound 114] : > 6.00

Lab note: measured pIC50 of CNCc1ccc(Oc2c(C(=O)c3c(C)cc(F)cc3C)sc3cc(O)ccc23)cc1 [Compound 113] was > 6.00
